Target: T1, HiNmlR C54A/C71A/C95A (Haemophilus influenzae Rd KW20, UniProt P44558 1-135, C54A;C71A;C95A)
T1 sequence: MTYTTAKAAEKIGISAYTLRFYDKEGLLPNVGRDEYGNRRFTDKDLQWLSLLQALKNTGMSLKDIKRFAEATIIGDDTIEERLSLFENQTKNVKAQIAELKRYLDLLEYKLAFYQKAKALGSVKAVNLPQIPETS
Test: MST
measured.metric: Kd (nM)
All answers are understood in nM, so give the number only.

Returns the measured Kd for the input binder. Input: PadhC-estD/nmlR IR wt 24-bp (dsDNA) DNA 1: CACTTTAGAGTTCACTCTAAAGCA DNA 2: TGCTTTAGAGTGAACTCTAAAGTG
55.3
